Biological target: angiotensin converting enzyme (Rattus norvegicus)
Sequence (P47820 36-1313): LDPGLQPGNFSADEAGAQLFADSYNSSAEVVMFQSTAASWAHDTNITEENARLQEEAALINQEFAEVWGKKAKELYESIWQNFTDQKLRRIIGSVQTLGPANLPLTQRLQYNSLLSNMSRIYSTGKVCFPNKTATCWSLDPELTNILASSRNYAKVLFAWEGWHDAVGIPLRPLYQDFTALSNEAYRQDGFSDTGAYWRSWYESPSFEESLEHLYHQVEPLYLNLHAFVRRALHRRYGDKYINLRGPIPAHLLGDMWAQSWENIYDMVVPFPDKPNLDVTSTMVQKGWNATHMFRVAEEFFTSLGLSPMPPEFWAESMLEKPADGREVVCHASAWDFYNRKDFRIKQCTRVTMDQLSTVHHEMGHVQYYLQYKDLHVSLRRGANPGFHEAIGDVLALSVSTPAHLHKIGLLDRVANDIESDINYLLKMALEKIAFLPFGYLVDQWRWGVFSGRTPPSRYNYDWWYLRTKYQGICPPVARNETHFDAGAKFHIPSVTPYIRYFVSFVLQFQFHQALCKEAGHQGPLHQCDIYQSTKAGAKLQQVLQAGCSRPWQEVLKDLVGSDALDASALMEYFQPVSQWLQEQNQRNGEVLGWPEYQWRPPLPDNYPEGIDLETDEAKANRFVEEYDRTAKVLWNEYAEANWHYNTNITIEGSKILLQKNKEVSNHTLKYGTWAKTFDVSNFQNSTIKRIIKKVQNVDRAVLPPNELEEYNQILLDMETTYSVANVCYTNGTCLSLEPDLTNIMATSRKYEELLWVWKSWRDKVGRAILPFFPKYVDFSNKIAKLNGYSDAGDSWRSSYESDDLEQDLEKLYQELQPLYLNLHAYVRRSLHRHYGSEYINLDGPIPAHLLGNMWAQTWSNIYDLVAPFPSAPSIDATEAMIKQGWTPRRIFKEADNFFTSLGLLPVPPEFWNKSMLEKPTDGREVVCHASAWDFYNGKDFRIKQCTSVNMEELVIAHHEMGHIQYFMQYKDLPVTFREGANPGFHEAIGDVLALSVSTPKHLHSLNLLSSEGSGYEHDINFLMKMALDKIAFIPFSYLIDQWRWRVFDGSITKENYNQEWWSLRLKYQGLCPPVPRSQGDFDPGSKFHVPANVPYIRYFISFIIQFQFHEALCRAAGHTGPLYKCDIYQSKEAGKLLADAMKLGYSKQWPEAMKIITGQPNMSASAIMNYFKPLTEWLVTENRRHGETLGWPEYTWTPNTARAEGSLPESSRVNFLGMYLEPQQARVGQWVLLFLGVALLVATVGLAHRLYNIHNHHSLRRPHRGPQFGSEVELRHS
parameter: pIC50
In plain terms, pIC50 is the concentration in mol/L turned into minus its base-10 logarithm.

-- ask Value wanted: pIC50 (angiotensin converting enzyme (Rattus norvegicus)) of entry C[CH](CC(=O)O)[Ge](=[S])[S][Ge](=[S])[CH](C)CC(=O)O (stereo not shown)
-- reply 3.77

====

The following compounds are shown together with reported IC50 values.
Target: Dipeptidylcarboxypeptidase (Bos taurus, UniProt P12820)
Construct: derived from bovine longitudinal muscle; from tissue; host or cells: bovine longitudinal muscle, partially purified (Gorenstein and Snyder 1979)
Sequence (P12820 29-1306): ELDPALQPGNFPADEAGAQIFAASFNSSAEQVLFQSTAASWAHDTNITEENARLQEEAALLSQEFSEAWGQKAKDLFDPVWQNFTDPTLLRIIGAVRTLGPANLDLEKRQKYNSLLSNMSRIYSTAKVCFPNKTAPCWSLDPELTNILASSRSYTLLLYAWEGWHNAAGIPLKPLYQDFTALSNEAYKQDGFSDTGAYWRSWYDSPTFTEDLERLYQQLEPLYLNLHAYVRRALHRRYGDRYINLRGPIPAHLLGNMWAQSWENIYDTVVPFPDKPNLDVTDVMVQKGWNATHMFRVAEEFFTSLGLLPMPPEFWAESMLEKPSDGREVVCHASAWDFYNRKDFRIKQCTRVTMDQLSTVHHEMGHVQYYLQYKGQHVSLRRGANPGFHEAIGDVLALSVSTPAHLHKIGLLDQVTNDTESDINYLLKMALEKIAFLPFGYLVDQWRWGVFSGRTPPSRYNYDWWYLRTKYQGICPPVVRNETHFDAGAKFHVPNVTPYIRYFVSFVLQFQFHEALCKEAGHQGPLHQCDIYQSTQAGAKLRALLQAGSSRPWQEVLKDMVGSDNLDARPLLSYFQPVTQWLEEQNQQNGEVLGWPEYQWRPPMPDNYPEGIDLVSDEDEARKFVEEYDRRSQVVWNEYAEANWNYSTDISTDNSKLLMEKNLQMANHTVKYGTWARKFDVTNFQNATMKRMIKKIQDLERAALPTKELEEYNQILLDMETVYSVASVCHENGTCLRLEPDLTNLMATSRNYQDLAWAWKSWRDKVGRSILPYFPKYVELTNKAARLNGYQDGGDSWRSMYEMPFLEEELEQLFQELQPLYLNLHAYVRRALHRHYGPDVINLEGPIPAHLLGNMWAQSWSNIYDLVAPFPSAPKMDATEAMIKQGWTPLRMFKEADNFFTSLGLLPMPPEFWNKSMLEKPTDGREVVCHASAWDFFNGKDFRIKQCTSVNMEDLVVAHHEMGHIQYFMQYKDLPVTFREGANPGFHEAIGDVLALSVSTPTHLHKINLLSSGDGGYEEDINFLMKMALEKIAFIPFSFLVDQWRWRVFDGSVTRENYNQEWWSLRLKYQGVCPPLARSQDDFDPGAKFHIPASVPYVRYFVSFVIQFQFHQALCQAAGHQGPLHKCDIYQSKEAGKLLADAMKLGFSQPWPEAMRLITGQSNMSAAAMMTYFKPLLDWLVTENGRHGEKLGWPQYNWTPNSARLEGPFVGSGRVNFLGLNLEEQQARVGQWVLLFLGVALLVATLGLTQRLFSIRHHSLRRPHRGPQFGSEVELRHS
Assay: Inhibition of dipeptidylcarboxypeptidase from bovine longitudinal muscle (substrate Hip-His-Leu)
Type: biochemical
Source text: (1) As described above, the inhibitor of the present invention has a strong effect of inhibiting the action of the opioid peptide-degrading enzyme. […] On the other hand, however, some opioid peptides released in vivo when such narcotic substances are given and opioid peptide-degrading enzymes have been known. […]
Numeric answer plus unit only.

-- ask Which value of IC50 has been reported for C[CH](CC(=O)O)[Ge](=[S])[S][Ge](=[S])[CH](C)CC(=O)O (centres unmarked) in the records?
-- reply 159 µM

The record that follows has no IC50 shown yet.
-- ask Which value of IC50 has been reported for O=C(O)C[CH](c1ccccc1)[Ge](=[S])[S][Ge](=[S])[CH](CC(=O)O)c1ccccc1 (centres unmarked) in the records?
-- reply 185 µM
